Provenance of the data: patent US20140249105A1

Test system: B16 melanocytes
protocol_summary: Viability of the cells, test of reduction of MTT
Assay type: cell-based
reported_conditions: 72 h; 100 μM
# if measured Viability (MTT) % stimulated control < 70 % stimulated control: label 1  # else: label 0

[[record]]
compound = "O=C(NC1CCC(NC(=O)C(F)=CCCCCCCCCO)C1)C(F)=CCCCCCCCCO (mixture of isomers)"
category = "label 1"

[[record]]
compound = "O=C(NC1CCC(NC(=O)C(F)=CCCCCCCCCOC2CCCCO2)C1)C(F)=CCCCCCCCCOC1CCCCO1 (mixture of isomers)"
category = "label 0"

[[record]]
compound = "O=C(NC1CC1NC(=O)C(F)=CCCCCCOC1CCCCO1)C(F)=CCCCCCOC1CCCCO1 (racemic) [c110]"
category = "label 1"

[[record]]
compound = "O=C(NC1CCCC1NC(=O)C(F)=CCCCCCCCOC1CCCCO1)C(F)=CCCCCCCCOC1CCCCO1 (mixture of isomers)"
category = "label 0"

[[record]]
compound = "O=C(/C=C/CCCCCCCCO)N[C@H]1CCC[C@H]1NC(=O)/C=C/CCCCCCCCO"
category = "label 0"

